Would you mind telling me the reported AC50 of each entry?
Target: CYP3A4 (Homo sapiens, UniProt P08684)
Sequence (P08684 whole entry): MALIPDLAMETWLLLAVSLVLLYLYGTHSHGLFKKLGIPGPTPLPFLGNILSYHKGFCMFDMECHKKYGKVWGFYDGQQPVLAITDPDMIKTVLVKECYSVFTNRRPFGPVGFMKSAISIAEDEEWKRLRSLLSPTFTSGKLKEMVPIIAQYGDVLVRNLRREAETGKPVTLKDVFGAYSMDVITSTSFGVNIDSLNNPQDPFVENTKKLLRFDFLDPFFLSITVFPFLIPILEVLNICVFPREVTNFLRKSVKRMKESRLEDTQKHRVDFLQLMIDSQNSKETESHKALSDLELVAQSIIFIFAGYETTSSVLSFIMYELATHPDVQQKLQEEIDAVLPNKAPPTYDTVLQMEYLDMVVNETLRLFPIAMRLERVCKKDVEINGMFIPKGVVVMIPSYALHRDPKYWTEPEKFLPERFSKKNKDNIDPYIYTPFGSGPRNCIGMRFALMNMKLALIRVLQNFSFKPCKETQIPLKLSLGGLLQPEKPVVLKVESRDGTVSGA
Assay remarks: biochemical
Measurement parameters: CYP3A4 AC50 (half-maximal activity concentration)
Where a name gives a salt, the structure may show the parent alone.
Write the number in µM without appending the unit.

Qu. Dear colleague, I am looking for the recorded AC50 of the following compound: O=C(/C=C/c1ccccc1)OCc1ccccc1 [Benzyl cinnamate]
Ans. 21.5

Qu. Similarly, O=[N+]([O-])c1cc(C(F)(F)F)cc([N+](=O)[O-])c1Cl ?
Ans. 49.2

Qu. Similarly, Oc1c(Br)c(Br)c(Br)c(Br)c1Br ?
Ans. 70.2

Qu. Similarly, COC(=O)C(C)Oc1ccc(Oc2ccc(Cl)cc2Cl)cc1 (stereo not drawn) ?
Ans. 12.8

Qu. Similarly, CCN(CCCc1ccccc1)CCCc1ccccc1 [Alverine citrate] ?
Ans. 14.4

Qu. Similarly, O=[N+]([O-])c1c(Cl)c(Cl)c(Cl)c(Cl)c1Cl ?
Ans. 4.7

Qu. Similarly, CC(=O)[C@H]1CC[C@H]2[C@@H]3CCC4=CC(=O)CC[C@]4(C)[C@H]3CC[C@]12C ?
Ans. 2.35

Qu. Similarly, COC(=O)N(OC)c1ccccc1COc1ccn(-c2ccc(Cl)cc2)n1 ?
Ans. 1.31

Qu. Similarly, CC(C)N(C(=O)SCC(Cl)=C(Cl)Cl)C(C)C [Tri-allate] ?
Ans. 2.47
